The measurements presented in this section are drawn from patent US20240217966A1.

- TEST SYSTEM: Human GLP-1 receptor (Homo sapiens, UniProt P43220)
- Construct: expressed in transfected cells
- Sequence (P43220 24-463): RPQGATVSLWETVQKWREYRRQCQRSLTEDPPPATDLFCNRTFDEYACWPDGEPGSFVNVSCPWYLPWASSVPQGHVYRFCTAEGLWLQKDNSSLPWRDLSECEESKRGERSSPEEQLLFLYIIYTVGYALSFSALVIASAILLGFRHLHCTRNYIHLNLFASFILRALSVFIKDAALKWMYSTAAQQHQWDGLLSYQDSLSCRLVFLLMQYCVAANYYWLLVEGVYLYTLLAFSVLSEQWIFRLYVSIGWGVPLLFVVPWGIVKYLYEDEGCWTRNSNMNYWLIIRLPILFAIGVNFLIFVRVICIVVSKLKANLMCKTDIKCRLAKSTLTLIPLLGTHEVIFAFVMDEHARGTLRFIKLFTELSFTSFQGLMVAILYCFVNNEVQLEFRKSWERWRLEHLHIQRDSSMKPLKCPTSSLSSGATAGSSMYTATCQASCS
- ASSAY NOTES: Measurement of GLP-1 receptor agonist activity (cAMP assay)
- Type: cell-based
- CONDITION LABEL: CHO-K1, maximum effect, cAMP increase in GLP-1 R/CHO-K1 cells; 2 nM human GLP-1 (7-36) = 100%, DMSO only = 0%; read-out: Emax

ITEM SMILES: C[C@H]1c2nc(OCc3ccc(C4CC4)cc3)c(C(F)(F)F)cc2CCN1Cc1nc2ccc(C(=O)O)cc2n1C[C@@H]1CCO1
TEST SYSTEM: Human GLP-1 receptor (Homo sapiens, UniProt P43220)
Emax: 120%
--
ITEM SMILES: Cc1ccc(COc2cc3c(cc2Cl)CCN(Cc2nc4ccc(C(=O)O)c(F)c4n2C[C@@H]2CCO2)[C@H]3C)cc1
TEST SYSTEM: Human GLP-1 receptor (Homo sapiens, UniProt P43220)
Emax: 97.7%
--
ITEM SMILES: COc1cc(Cl)ccc1COc1nc2c(cc1C(F)(F)F)CCN(Cc1nc3ccc(C(=O)O)cc3n1C[C@@H]1CCO1)C2
TEST SYSTEM: Human GLP-1 receptor (Homo sapiens, UniProt P43220)
Emax: 112%
--
ITEM SMILES: O=C(O)c1ccc2nc(CN3CCc4cc(C(F)(F)F)c(OCc5ccc(Cl)cc5Cl)nc4C3)n(C[C@@H]3CCO3)c2n1
TEST SYSTEM: Human GLP-1 receptor (Homo sapiens, UniProt P43220)
Emax: 115%

----------
- TEST SYSTEM: Human GLP-1 receptor (Homo sapiens)
- Construct: expressed in transfected cells
- ASSAY NOTES: Measurement of GLP-1 receptor agonist activity (cAMP assay)
- Type: cell-based
- CONDITION LABEL: CHO-K1, maximum effect, cAMP increase in GLP-1 R/CHO-K1 cells; 2 nM human GLP-1 (7-36) = 100%, DMSO only = 0%; read-out: Emax
Collected Emax values appear next to each entry.
ASSAY METRIC: Emax (%)

COMPOUND: COc1cc(C(=O)O)cc2c1nc(CN1CCc3cc(Cl)c(OCc4ccc(Cl)cc4Cl)cc3[C@@H]1C)n2C[C@@H]1CCO1 [Compound I-345]
UNIT ABBREVIATION: %
NUMERIC RESULT: 129
--
COMPOUND: C[C@H]1c2cc(OCc3ccc(F)cc3F)c(Cl)cc2CCN1Cc1nc2c(F)cc(C(=O)O)cc2n1C[C@@H]1CCO1 [Compound I-335]
UNIT ABBREVIATION: %
NUMERIC RESULT: 98
--
COMPOUND: O=C(O)c1ccc2nc(CN3CCc4cc(C(F)(F)F)c(OCc5ccc(Cl)cn5)nc4C3)n(C[C@@H]3CCO3)c2c1 [Compound I-263]
UNIT ABBREVIATION: %
NUMERIC RESULT: 105
--
COMPOUND: COc1cc(C(=O)O)cc2c1nc(CN1CCc3cc(Cl)c(OCc4ccc(C5CC5)cc4)cc3[C@@H]1C)n2C[C@@H]1CCO1 [Compound I-342]
UNIT ABBREVIATION: %
NUMERIC RESULT: 97.3
--
COMPOUND: CC1c2cc(OCc3ccc(Cl)cc3F)ccc2CCN1Cc1nc2ccc(C(=O)O)cc2n1C[C@@H]1CCO1 (some centres unmarked) [Compound I-025]
UNIT ABBREVIATION: %
NUMERIC RESULT: 78.7
--
COMPOUND: C[C@H]1c2nc(OCc3ccc(Cl)cc3F)c(C(F)(F)F)cc2CCN1Cc1nc2ccc(C(=O)O)nc2n1C[C@@H]1CCO1 [Compound I-275]
UNIT ABBREVIATION: %
NUMERIC RESULT: 107
--
COMPOUND: COc1cc(Cl)ccc1COc1cc2c(cc1Cl)CCN(Cc1nc3c(F)cc(C(=O)O)cc3n1C[C@@H]1CCO1)[C@H]2C [Compound I-334]
UNIT ABBREVIATION: %
NUMERIC RESULT: 114
--
COMPOUND: COc1cc(C(=O)O)cc2c1nc(CN1CCc3cc(C(F)(F)F)c(OCc4ccc(C#N)cc4F)cc3[C@@H]1C)n2C[C@@H]1CCO1 [Compound I-235]
UNIT ABBREVIATION: %
NUMERIC RESULT: 102
--
COMPOUND: C[C@H]1c2nc(OCc3ccccc3Cl)c(C(F)(F)F)cc2CCN1Cc1nc2ccc(C(=O)O)nc2n1C[C@@H]1CCO1 [Compound I-287]
UNIT ABBREVIATION: %
NUMERIC RESULT: 116
--
COMPOUND: COc1ccc(COc2cc3c(cc2Cl)CCN(Cc2nc4c(F)cc(C(=O)O)cc4n2C[C@@H]2CCO2)[C@H]3C)cc1 [Compound I-331]
UNIT ABBREVIATION: %
NUMERIC RESULT: 102
--
COMPOUND: C[C@H]1c2cc(OCc3cc(F)c(Cl)cc3F)c(Cl)cc2CCN1Cc1nc2ccc(C(=O)O)c(F)c2n1C[C@@H]1CCO1 [Compound I-326]
UNIT ABBREVIATION: %
NUMERIC RESULT: 109

----------
- TEST SYSTEM: Human GLP-1 receptor (Homo sapiens, UniProt P43220)
- Construct: expressed in transfected cells
- ASSAY NOTES: Measurement of GLP-1 receptor agonist activity (cAMP assay)
- Assay type: cell-based
- CONDITION LABEL: CHO-K1, hGLP-1R/CHO-K1 cells, cAMP; 100% = human GLP-1 (7-36) at 2 nM, 0% = DMSO only; read-out: Emax(%)
- Protocol: Test Example 1: (Measurement of GLP-1 Receptor Agonist Activity) Human GLP-1 receptor stably expressing cells (hGLP-1R/CHO-K1 cells) are cultured in an α-MEM medium (Sigma) containing 10% FBS (Hyclone), 2% GlutaMAX (Gibco), 1% G418 (Nacalai Tesque), and 1% Penicillin-Streptomycin Mixed Solution (Sigma) at 37° C. under 5% CO2 conditions, and recovered by treating a 10 fold diluted 5.0 g/l-trypsin/5.3 mmol/l-EDTA solution (Nacalai Tesque) and cryopreserved. […]
ASSAY METRIC: Emax

ITEM SMILES: O=C(O)c1ccc2nc(CN3CCc4cc(C(F)(F)F)c(OCc5c(F)cc(F)cc5F)cc4C3)n(C[C@@H]3CCO3)c2c1
TEST SYSTEM: Human GLP-1 receptor (Homo sapiens, UniProt P43220)
RESULT: 101%
--
ITEM SMILES: C[C@H]1c2cc(OCc3ccccc3Cl)c(C(F)(F)F)cc2CCN1Cc1nc2ccc(C(=O)O)nc2n1C[C@@H]1CCO1
TEST SYSTEM: Human GLP-1 receptor (Homo sapiens, UniProt P43220)
RESULT: 126%
--
ITEM SMILES: O=C(O)c1ccc2nc(CN3CCc4cc(C(F)(F)F)c(OCc5cc(F)c(Cl)cc5F)cc4C3)n(C[C@@H]3CCO3)c2c1
TEST SYSTEM: Human GLP-1 receptor (Homo sapiens, UniProt P43220)
RESULT: 102%
--
ITEM SMILES: N#Cc1cc2c(cc1OCc1ccc(Cl)cc1F)CN(Cc1nc3ccc(C(=O)O)cc3n1C[C@@H]1CCO1)CC2
TEST SYSTEM: Human GLP-1 receptor (Homo sapiens, UniProt P43220)
RESULT: 84.3%
--
ITEM SMILES: C[C@H]1c2cc(OCc3ccc(Cl)cc3Cl)c(C(F)(F)F)cc2CCN1Cc1nc2c(F)cc(C(=O)O)cc2n1C[C@@H]1CCO1
TEST SYSTEM: Human GLP-1 receptor (Homo sapiens, UniProt P43220)
RESULT: 103%

----------
- TEST SYSTEM: Human GLP-1 receptor (Homo sapiens, UniProt P43220)
- Construct: expressed in transfected cells
- ASSAY NOTES: Measurement of GLP-1 receptor agonist activity (cAMP assay)
- Assay type: cell-based
- CONDITION LABEL: cAMP increase in GLP-1 R/CHO-K1 cells; 2 nM human GLP-1 (7-36) = 100%, DMSO only = 0%
Recorded log10 EC50 values for a group of molecules are listed next.
ASSAY METRIC: log10 EC50 (log10 of the value in nM)

ITEM SMILES: C[C@H]1c2nc(OCc3ccc(OC(F)F)cc3F)c(C(F)(F)F)cc2CCN1Cc1nc2c(F)cc(C(=O)O)cc2n1C[C@@H]1CCO1
NUMERIC RESULT: -0.84
//
ITEM SMILES: COc1ccc(COc2cc3c(cc2Cl)CCN(Cc2nc4c(F)cc(C(=O)O)cc4n2C[C@@H]2CCO2)[C@H]3C)cc1
NUMERIC RESULT: 0.43
//
ITEM SMILES: C[C@H]1c2nc(OCc3ccc(F)cc3F)c(C(F)(F)F)cc2CCN1Cc1nc2ccc(C(=O)O)nc2n1C[C@@H]1CCO1
NUMERIC RESULT: -0.77
//
ITEM SMILES: C[C@H]1c2nc(OCc3ccc(C#N)cc3F)c(C(F)(F)F)cc2CCN1Cc1nc2ccc(C(=O)O)cc2n1C[C@@H]1CCO1
NUMERIC RESULT: -1.04
//
ITEM SMILES: C[C@H]1c2nc(OCc3c(F)cc(Cl)cc3F)c(C(F)(F)F)cc2CCN1Cc1nc2c(F)cc(C(=O)O)cc2n1C[C@@H]1CCO1
NUMERIC RESULT: -1.64
//
ITEM SMILES: COc1cc(Cl)ccc1COc1cc2c(cc1Cl)CCN(Cc1nc3ccc(C(=O)O)cc3n1C[C@@H]1CCO1)[C@H]2C
NUMERIC RESULT: -0.38
//
ITEM SMILES: C[C@H]1c2cc(OCc3ccc(Cl)cc3F)c(Cl)cc2CCN1Cc1nc2ccc(C(=O)O)nc2n1C[C@@H]1CCO1
NUMERIC RESULT: 0.32
//
ITEM SMILES: O=C(O)c1ccc2nc(CN3CCc4cc(C(F)(F)F)c(OCc5cc(F)c(Cl)cc5F)nc4C3)n(C[C@@H]3CCO3)c2n1
NUMERIC RESULT: -0.02
//
ITEM SMILES: Cc1csc(COc2nc3c(cc2C(F)(F)F)CCN(Cc2nc4ccc(C(=O)O)cc4n2C[C@@H]2CCO2)[C@H]3C)n1
NUMERIC RESULT: -0.04
//
ITEM SMILES: O=C(O)c1ccc2nc(CN3CCc4cc(C(F)(F)F)c(OCc5ccc(F)cc5F)nc4C3)n(C[C@@H]3CCO3)c2c1F
NUMERIC RESULT: -0.09
